Measured values drawn from paper PMC6982022 for this set.

# experimental.details: Pharmacokinetic study, single oral bolus, plasma LC/MS/MS
# Format: in vivo, rat
# assay.setup: male, CD, rat, plasma, po, 150 mg/kg, male CD rats, single oral 150 mg/kg, converted from ng/mL; read-out: Cmax (plasma level) in molar units
metric: Cmax (µM)
Reply with just the number (in µM).

Ask: Consider the molecule shown here: CCCCN1C[C@H](O)[C@@H](O)[C@@H](O)[C@H]1CO [NB-DGJ, N-butyldeoxygalactonojirimycin] What is its recorded Cmax?
Result: 50

----------
# experimental.details: Pharmacokinetic study, single oral bolus, plasma LC/MS/MS
# Format: in vivo, rat
# assay.setup: rat; male CD rats, single oral 150 mg/kg, n = 4, plasma
metric: tmax (h)
Reply with just the number (in h).

Ask: Consider the compound shown here: "CCCCN1C[C@H](O)[C@@H](O)[C@@H](O)[C@H]1CO" What is its recorded tmax?
Result: 1.3
